# Procedure details: Selectivity index, ratio of IC50 for African green monkey Vero cells to IC50 for chloroquine-resistant Plasmodium falciparum W2
# Type: toxicity
# Settings: read-out: Ratio IC50
Experimental endpoint: selectivity ratio

Some compounds with recorded selectivity ratio:
[
  {
    "Sample smiles": "CCN1CCN(c2nc(C)cc(N(CCNc3ccnc4cc(Cl)ccc34)Cc3ccc4c(c3)OCO4)n2)CC1",
    "Experimental endpoint": "selectivity ratio",
    "Value measured": "> 60.4"
  },
  {
    "Sample smiles": "Cc1cc(N(CCCNc2ccnc3cc(Cl)ccc23)Cc2ccc3c(c2)OCO3)nc(N2CCOCC2)n1",
    "Experimental endpoint": "selectivity ratio",
    "Value measured": "> 9.5"
  },
  {
    "Sample smiles": "Cc1cc(Cl)nc(N(CCNc2ccnc3cc(Cl)ccc23)Cc2ccc3c(c2)OCO3)n1",
    "Experimental endpoint": "selectivity ratio",
    "Value measured": "> 9.8"
  },
  {
    "Sample smiles": "Clc1ccc2c(NCCCNCc3ccc4c(c3)OCO4)ccnc2c1",
    "Experimental endpoint": "selectivity ratio",
    "Value measured": "> 84.5"
  },
  {
    "Sample smiles": "Cc1cc(N(CCCNc2ccnc3cc(Cl)ccc23)Cc2ccc3c(c2)OCO3)nc(N2CCCCC2)n1",
    "Experimental endpoint": "selectivity ratio",
    "Value measured": "> 8.8"
  },
  {
    "Sample smiles": "CCN1CCN(c2nc(C)cc(N(CCCNc3ccnc4cc(Cl)ccc34)Cc3ccc4c(c3)OCO4)n2)CC1",
    "Experimental endpoint": "selectivity ratio",
    "Value measured": "> 47.6"
  }
]

Now, please, on to the next compound.
## Task State its selectivity ratio for this compound: Cc1cc(N(CCNc2ccnc3cc(Cl)ccc23)Cc2ccc3c(c2)OCO3)nc(Cl)n1
## Result > 12.3

----------
# Procedure details: Selectivity index, ratio of IC50 for African green monkey Vero cells to IC50 for chloroquine-sensitive Plasmodium falciparum D6
# Type: toxicity
# Settings: read-out: Ratio IC50
Below: a set of entries, each annotated with reported selectivity ratio.

Some compounds with recorded selectivity ratio:
[
  {
    "Sample smiles": "Cc1cc(N(CCCNc2ccnc3cc(Cl)ccc23)Cc2ccc3c(c2)OCO3)nc(N2CCCCC2)n1",
    "Value measured": "> 59.8"
  },
  {
    "Sample smiles": "Cc1cc(Cl)nc(N(CCNc2ccnc3cc(Cl)ccc23)Cc2ccc3c(c2)OCO3)n1",
    "Value measured": "> 20.5"
  },
  {
    "Sample smiles": "Cc1cc(N(CCCNc2ccnc3cc(Cl)ccc23)Cc2ccc3c(c2)OCO3)nc(Cl)n1",
    "Value measured": "> 20.9"
  }
]

## Task State its selectivity ratio for this compound: Cc1cc(N2CCOCC2)nc(N(CCCNc2ccnc3cc(Cl)ccc23)Cc2ccc3c(c2)OCO3)n1
## Result 67

## Task State its selectivity ratio for this compound: Cc1cc(N(CCNc2ccnc3cc(Cl)ccc23)Cc2ccc3c(c2)OCO3)nc(N2CCCC2)n1
## Result > 243

## Task State its selectivity ratio for this compound: CCN1CCN(c2nc(C)cc(N(CCCNc3ccnc4cc(Cl)ccc34)Cc3ccc4c(c3)OCO4)n2)CC1
## Result > 194

## Task State its selectivity ratio for this compound: Cc1cc(N2CCCC2)nc(N(CCNc2ccnc3cc(Cl)ccc23)Cc2ccc3c(c2)OCO3)n1
## Result > 59.2

## Task State its selectivity ratio for this compound: Cc1cc(N2CCCCC2)nc(N(CCCNc2ccnc3cc(Cl)ccc23)Cc2ccc3c(c2)OCO3)n1
## Result > 57.2

## Task State its selectivity ratio for this compound: Clc1ccc2c(NCCNCc3ccc4c(c3)OCO4)ccnc2c1
## Result > 243

## Task State its selectivity ratio for this compound: Cc1cc(N2CCOCC2)nc(N(CCNc2ccnc3cc(Cl)ccc23)Cc2ccc3c(c2)OCO3)n1
## Result 51.4

## Task State its selectivity ratio for this compound: Cc1cc(N(CCNc2ccnc3cc(Cl)ccc23)Cc2ccc3c(c2)OCO3)nc(Cl)n1
## Result > 16.8

## Task State its selectivity ratio for this compound: Clc1ccc2c(NCCCNCc3ccc4c(c3)OCO4)ccnc2c1
## Result > 243

## Task State its selectivity ratio for this compound: CCN1CCN(c2cc(C)nc(N(CCNc3ccnc4cc(Cl)ccc34)Cc3ccc4c(c3)OCO4)n2)CC1
## Result > 239

----------
# Procedure details: Selectivity index, ratio of IC50 for African green monkey Vero cells to IC50 for chloroquine-resistant Plasmodium falciparum W2
# Assay type: toxicity
# Settings: read-out: Ratio IC50
Experimental endpoint: selectivity ratio

[
  {
    "Sample smiles": "Cc1cc(N2CCOCC2)nc(N(CCCNc2ccnc3cc(Cl)ccc23)Cc2ccc3c(c2)OCO3)n1",
    "Value measured": 9.4
  },
  {
    "Sample smiles": "Cc1cc(N2CCCC2)nc(N(CCNc2ccnc3cc(Cl)ccc23)Cc2ccc3c(c2)OCO3)n1",
    "Value measured": "> 9.8"
  }
]

## Task State its selectivity ratio for this compound: Cc1cc(N(CCNc2ccnc3cc(Cl)ccc23)Cc2ccc3c(c2)OCO3)nc(N2CCOCC2)n1
## Result > 66.8

----------
# Procedure details: Selectivity index, ratio of IC50 for African green monkey Vero cells to IC50 for chloroquine-sensitive Plasmodium falciparum D6
# Type: toxicity
# Settings: read-out: Ratio IC50
Below: a set of entries, each annotated with reported selectivity ratio.

## Task State its selectivity ratio for this compound: Cc1cc(Cl)nc(N(CCCNc2ccnc3cc(Cl)ccc23)Cc2ccc3c(c2)OCO3)n1
## Result > 8.6

## Task State its selectivity ratio for this compound: Cc1cc(N(CCNc2ccnc3cc(Cl)ccc23)Cc2ccc3c(c2)OCO3)nc(N2CCOCC2)n1
## Result > 243

## Task State its selectivity ratio for this compound: Cc1cc(N2CCCC2)nc(N(CCCNc2ccnc3cc(Cl)ccc23)Cc2ccc3c(c2)OCO3)n1
## Result > 76.7

## Task State its selectivity ratio for this compound: Cc1cc(N(CCCNc2ccnc3cc(Cl)ccc23)Cc2ccc3c(c2)OCO3)nc(N2CCCC2)n1
## Result > 192

----------
# System: Plasmodium falciparum
# Procedure details: Antiplasmodial activity against chloroquine-sensitive Plasmodium falciparum D6 infected in red blood cells after 72 hrs by Malstat reagent based LDH assay
# Format: functional, cell-based
# Settings: D6, 72 h
Below: a set of entries, each annotated with reported pIC50.
API: returns pIC50 as number; meaning -log10 of concentration in mol/L.

Some molecules with recorded pIC50:
[
  {
    "Sample smiles": "Cc1cc(N(CCNc2ccnc3cc(Cl)ccc23)Cc2ccc3c(c2)OCO3)nc(N2CCCC2)n1",
    "pIC50": 7.40
  },
  {
    "Sample smiles": "Cc1cc(N2CCCCC2)nc(N(CCNc2ccnc3cc(Cl)ccc23)Cc2ccc3c(c2)OCO3)n1",
    "pIC50": 6.77
  },
  {
    "Sample smiles": "Cc1cc(Cl)nc(N(CCNc2ccnc3cc(Cl)ccc23)Cc2ccc3c(c2)OCO3)n1",
    "pIC50": 6.32
  },
  {
    "Sample smiles": "Clc1ccc2c(NCCCNCc3ccc4c(c3)OCO4)ccnc2c1",
    "pIC50": 7.40
  },
  {
    "Sample smiles": "Cc1cc(N2CCOCC2)nc(N(CCCNc2ccnc3cc(Cl)ccc23)Cc2ccc3c(c2)OCO3)n1",
    "pIC50": 6.89
  }
]

## Task State its pIC50 for this molecule: CCN1CCN(c2cc(C)nc(N(CCNc3ccnc4cc(Cl)ccc34)Cc3ccc4c(c3)OCO4)n2)CC1
## Result 7.52

----------
# System: Vero
# Procedure details: Cytotoxicity against African green monkey Vero cells up to 9 uM
# Assay type: cell-based
# Settings: chlorocebus sabaeus
Experimental endpoint: Activity

Some compounds with recorded Activity:
[
  {
    "Sample smiles": "Cc1cc(N(CCNc2ccnc3cc(Cl)ccc23)Cc2ccc3c(c2)OCO3)nc(Cl)n1",
    "Activity": "Non-Toxic"
  },
  {
    "Sample smiles": "Cc1cc(Cl)nc(N(CCNc2ccnc3cc(Cl)ccc23)Cc2ccc3c(c2)OCO3)n1",
    "Activity": "Non-Toxic"
  },
  {
    "Sample smiles": "Cc1cc(N(CCNc2ccnc3cc(Cl)ccc23)Cc2ccc3c(c2)OCO3)nc(N2CCCCC2)n1",
    "Activity": "Non-Toxic"
  },
  {
    "Sample smiles": "Cc1cc(N2CCCC2)nc(N(CCCNc2ccnc3cc(Cl)ccc23)Cc2ccc3c(c2)OCO3)n1",
    "Activity": "Non-Toxic"
  },
  {
    "Sample smiles": "Cc1cc(Cl)nc(N(CCCNc2ccnc3cc(Cl)ccc23)Cc2ccc3c(c2)OCO3)n1",
    "Activity": "Non-Toxic"
  }
]

## Task State its Activity for this compound: CCN1CCN(c2cc(C)nc(N(CCNc3ccnc4cc(Cl)ccc34)Cc3ccc4c(c3)OCO4)n2)CC1
## Result Non-Toxic

## Task State its Activity for this compound: CCN1CCN(c2nc(C)cc(N(CCNc3ccnc4cc(Cl)ccc34)Cc3ccc4c(c3)OCO4)n2)CC1
## Result Non-Toxic

## Task State its Activity for this compound: Cc1cc(N2CCCCC2)nc(N(CCCNc2ccnc3cc(Cl)ccc23)Cc2ccc3c(c2)OCO3)n1
## Result Non-Toxic

## Task State its Activity for this compound: Clc1ccc2c(NCCCNCc3ccc4c(c3)OCO4)ccnc2c1
## Result Non-Toxic
